Measured pKd, listed per entry for reference.
Biological target: CheR of Pectobacterium atrosepticum SCRI1043 (Pectobacterium atrosepticum SCRI1043)
Experiment: ITC
Please note pKd is a logarithmic value: minus log10 of concentration in mol/L. Answer with that number alone.

For orientation, consider the following solved cases.
| binder | pKd |
| --- | --- |
| GWTTF [GWTTF pentapeptide] | 7.05 |
| DWTSF [DWTSF pentapeptide] | 6.44 |
| NWTTF [NWTTF pentapeptide] | 6.00 |

Lookup: What does the data say about its pKd? Entry: GWEKF [GWEKF pentapeptide]
Found: 6.70

Lookup: What does the data say about its pKd? Entry: NWETF [NWETF pentapeptide]
Found: 6.32

Lookup: What does the data say about its pKd? Entry: GWQRF [GWQRF pentapeptide]
Found: 6.27
